# Assay: ENNB1 substrate depletion assay in human liver microsomes
# Format: in vitro ADME
# Conditions used: human, liver microsomes, pH 7.4; HLM; derived from depletion assays with three ENNB1 concentrations (0.8; 3; 6 µM)
Quantity: Km (µM)
Note: unit µM is implicit; provide only the numeric part.

Task: What Km value was documented for this compound, CC[C@H](C)[C@H]1C(=O)O[C@H](C(C)C)C(=O)N(C)[C@@H](C(C)C)C(=O)O[C@H](C(C)C)C(=O)N(C)[C@@H](C(C)C)C(=O)O[C@H](C(C)C)C(=O)N1C [ENNB1, Enniatin B1] ?
Result: 10.1

* * *

# Assay: ENNB1 substrate depletion assay in human liver microsomes
# Format: in vitro ADME
# Conditions used: human, human liver microsomes, pH 7.4; HLM; ENNB1 concentration 3 µM; read-out: ke (converted)
# Procedure: The kinetic parameters were derived in HLM assays from the substrate depletion rate constants (ke) that were determined by regression analysis of measured peak areas of the added substrate versus time curves (A(t) = b + a*e^−ket), as described before. Briefly, the assay half-lifes (t1/2, assay = ln2/ke) and assay clearances (CLassay = Vassay*ke) were calculated under consideration of the assay volume (Vassay). […]
Quantity: k el at 3 µM (s⁻¹)
# output: bare number, implied unit s⁻¹

Task: // query k el at 3 µM value for entry CC[C@H](C)[C@H]1C(=O)O[C@H](C(C)C)C(=O)N(C)[C@@H](C(C)C)C(=O)O[C@H](C(C)C)C(=O)N(C)[C@@H](C(C)C)C(=O)O[C@H](C(C)C)C(=O)N1C [ENNB1, Enniatin B1]
Result: 0.00108

Origin of the recorded values: paper PMC6724072
